- Test system: ATP;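 note: ATP exposure 15 min at 22 °C before imaging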
- Experimental protocol: switch fluorescence ratio, 500 uM ATP over buffer (Cy3 cluster intensity, sum of 5 cycles each) (fold (ratio)); higher = stronger signal-on switching upon ATP binding; sequences stand for … in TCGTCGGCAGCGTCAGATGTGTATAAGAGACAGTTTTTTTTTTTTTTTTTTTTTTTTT…TC
- Condition notes: aptamer strand: ATP DNA aptamer (quencher-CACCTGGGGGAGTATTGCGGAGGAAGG + anchor), 100 nM annealed; ATP concentration: 500 uM
Please note: T applies when switch fluorescence ratio is 1 or greater, and F applies otherwise.

INSERT INTO measurements (sequence_record, assigned_label) VALUES
  ('ATCCTAGTGT', 'T'),
  ('TTTGGACGCA', 'T'),
  ('CGATTTGGGG', 'F'),
  ('TCGTAGTGGC', 'T'),
  ('CGCAAAGAGG', 'T'),
  ('ATGGTAGCAA', 'T'),
  ('TGGAGAGTGT', 'F'),
  ('CCTTCAGCGT', 'T'),
  ('GGGCGCCCCC', 'T'),
  ('GGGTAAATTG', 'T'),
  ('GAGAATGAGG', 'F'),
  ('ATTTCGATGT', 'T');

----------
Each entry below carries its recorded switch fluorescence ratio.
- System: ATP;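 note: ATP exposure 15 min at 22 °C before imaging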
- Experimental protocol: switch fluorescence ratio, 500 uM ATP over buffer (Cy3 cluster intensity, sum of 5 cycles each) (fold (ratio)); higher = stronger signal-on switching upon ATP binding; sequences stand for … in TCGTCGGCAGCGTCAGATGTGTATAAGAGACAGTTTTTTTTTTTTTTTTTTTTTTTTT…TC
- Condition notes: aptamer strand: ATP DNA aptamer (quencher-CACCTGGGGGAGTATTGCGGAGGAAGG + anchor), 100 nM annealed; ATP concentration: 500 uM
Property label: switch fluorescence ratio

INSERT INTO assay_data (sequence_record, property_label, recorded_number) VALUES
  ('GTTGCTTGCG', 'switch fluorescence ratio', 1),
  ('TCTAAGTTGT', 'switch fluorescence ratio', 1),
  ('GTTGTGTGGG', 'switch fluorescence ratio', 0.985),
  ('TGAGGGCGAA', 'switch fluorescence ratio', 0.984),
  ('AGCTTGGACC', 'switch fluorescence ratio', 1.01),
  ('GAATAGGGCC', 'switch fluorescence ratio', 1.01),
  ('TATAATCCAG', 'switch fluorescence ratio', 0.984),
  ('CGTGGCCGTT', 'switch fluorescence ratio', 0.978),
  ('GTAATGATTG', 'switch fluorescence ratio', 0.989),
  ('CGTATAGGTC', 'switch fluorescence ratio', 0.999),
  ('CGTCGTACGC', 'switch fluorescence ratio', 0.981),
  ('AGCATTGTTT', 'switch fluorescence ratio', 0.985),
  ('TCCATACTGG', 'switch fluorescence ratio', 1),
  ('TAATTAATCT', 'switch fluorescence ratio', 0.992),
  ('TGGGTTTTGA', 'switch fluorescence ratio', 1.01),
  ('AATCAGGGGG', 'switch fluorescence ratio', 1.01),
  ('TGGTGGGTAT', 'switch fluorescence ratio', 0.999),
  ('CGAAGAGGTT', 'switch fluorescence ratio', 0.989),
  ('CGATAATGTG', 'switch fluorescence ratio', 0.973),
  ('TCTGGGGGGA', 'switch fluorescence ratio', 1.01),
  ('GGGAGGGCA', 'switch fluorescence ratio', 1),
  ('GATTTTTAGT', 'switch fluorescence ratio', 1),
  ('CTAGTTAAAC', 'switch fluorescence ratio', 1.01),
  ('CTCATTAAGG', 'switch fluorescence ratio', 1.01),
  ('ATGAGTTCTC', 'switch fluorescence ratio', 1),
  ('CATGGTATTT', 'switch fluorescence ratio', 0.98),
  ('TCACGGGGTT', 'switch fluorescence ratio', 1.01),
  ('GGCTGGGCAG', 'switch fluorescence ratio', 0.981),
  ('TTGAGGTTGT', 'switch fluorescence ratio', 0.99),
  ('TAGTTAATAT', 'switch fluorescence ratio', 1),
  ('TCGATGGATG', 'switch fluorescence ratio', 1.02),
  ('ATAATTTGAT', 'switch fluorescence ratio', 0.983),
  ('GAGGTCATTC', 'switch fluorescence ratio', 0.999),
  ('TTTTAATTCA', 'switch fluorescence ratio', 1),
  ('GTGATAGATG', 'switch fluorescence ratio', 1.01),
  ('TTAATTGGGG', 'switch fluorescence ratio', 1.06),
  ('GGACTCTAGG', 'switch fluorescence ratio', 0.979),
  ('GACGTGTGAG', 'switch fluorescence ratio', 0.993),
  ('TTATAAGGTT', 'switch fluorescence ratio', 1.02),
  ('TGAAGGCAGG', 'switch fluorescence ratio', 1.01),
  ('CCGTGGGACC', 'switch fluorescence ratio', 1.11),
  ('ACGGAAAACA', 'switch fluorescence ratio', 1.02),
  ('TAGGGAGTCA', 'switch fluorescence ratio', 0.971),
  ('AATATTGTCT', 'switch fluorescence ratio', 0.96),
  ('GTGTGAGATT', 'switch fluorescence ratio', 1.02),
  ('TCTGGGTATG', 'switch fluorescence ratio', 0.988),
  ('TTATTTTCAG', 'switch fluorescence ratio', 0.996),
  ('GATTATGCGG', 'switch fluorescence ratio', 0.985),
  ('GTGTACTCAT', 'switch fluorescence ratio', 1.01),
  ('AAGAATCTCT', 'switch fluorescence ratio', 0.968);

----------
Each entry below carries its recorded switch fluorescence ratio.
- Test system: ATP;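 note: ATP exposure 15 min at 22 °C before imaging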
- Experimental protocol: switch fluorescence ratio, 500 uM ATP over buffer (Cy3 cluster intensity, sum of 5 cycles each) (fold (ratio)); higher = stronger signal-on switching upon ATP binding; sequences stand for … in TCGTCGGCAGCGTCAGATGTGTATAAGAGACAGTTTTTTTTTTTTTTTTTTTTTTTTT…TC
- Condition notes: aptamer strand: ATP DNA aptamer (quencher-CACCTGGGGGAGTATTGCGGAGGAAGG + anchor), 100 nM annealed; ATP concentration: 500 uM
Property label: switch fluorescence ratio

INSERT INTO results (sequence_record, property_label, recorded_number) VALUES
  ('AATTTGTTTG', 'switch fluorescence ratio', 1),
  ('TATTTGGGGG', 'switch fluorescence ratio', 1.01),
  ('GATGATGAGG', 'switch fluorescence ratio', 0.996),
  ('TTGTAGAAAA', 'switch fluorescence ratio', 1.3),
  ('CAAAACGTAG', 'switch fluorescence ratio', 1.01),
  ('CAGCCGCTGT', 'switch fluorescence ratio', 1.79),
  ('AGTGAGGGAA', 'switch fluorescence ratio', 0.979),
  ('GATGCCGGCA', 'switch fluorescence ratio', 0.98),
  ('CGCTACTGTT', 'switch fluorescence ratio', 1.08),
  ('AGAGTCTTTT', 'switch fluorescence ratio', 0.993),
  ('TCTGGGGTGT', 'switch fluorescence ratio', 1.13),
  ('TGATAACTGG', 'switch fluorescence ratio', 0.975),
  ('GGTTACCAGA', 'switch fluorescence ratio', 0.997),
  ('TAACATAATT', 'switch fluorescence ratio', 1),
  ('AGAGTCCCTT', 'switch fluorescence ratio', 1),
  ('TTATAGTGGG', 'switch fluorescence ratio', 1),
  ('GCGGGGACGC', 'switch fluorescence ratio', 0.998),
  ('AAGGTGAATC', 'switch fluorescence ratio', 1.04),
  ('TTAGGGGACG', 'switch fluorescence ratio', 0.981),
  ('GCACGCGTGC', 'switch fluorescence ratio', 1.01),
  ('TTACTTATTT', 'switch fluorescence ratio', 1.04),
  ('AAATTGGGCG', 'switch fluorescence ratio', 0.983),
  ('CTAAACGTCA', 'switch fluorescence ratio', 1.1);

----------
- Test system: ATP;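 note: ATP exposure 15 min at 22 °C before imaging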
- Experimental protocol: switch fluorescence ratio, 500 uM ATP over buffer (Cy3 cluster intensity, sum of 5 cycles each) (fold (ratio)); higher = stronger signal-on switching upon ATP binding; sequences stand for … in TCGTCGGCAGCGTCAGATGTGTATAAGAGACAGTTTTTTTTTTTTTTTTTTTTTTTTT…TC
- Condition notes: aptamer strand: ATP DNA aptamer (quencher-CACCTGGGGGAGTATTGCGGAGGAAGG + anchor), 100 nM annealed; ATP concentration: 500 uM
Property label: switch fluorescence ratio

INSERT INTO assay_data (sequence_record, target_system, result) VALUES
  ('TATGATTCAG', 'ATP', 0.98),
  ('GACTCGGGCG', 'ATP', 1.01),
  ('GATATAGGCG', 'ATP', 1.05),
  ('CGGTTTGCGT', 'ATP', 0.975),
  ('TGGGGGACGG', 'ATP', 1),
  ('ATACAGGAAC', 'ATP', 1.03),
  ('GCAAGGTTAT', 'ATP', 1.01),
  ('CTGTGAGTTT', 'ATP', 1.01),
  ('TGCATTTAAT', 'ATP', 1.01),
  ('GTTTTATAAA', 'ATP', 0.976);
